Numbers sourced from paper PMC2853113.

# target.under.test: T1, YvoA wild-type (Bacillus subtilis, UniProt O34817 1-243)
# T1 sequence: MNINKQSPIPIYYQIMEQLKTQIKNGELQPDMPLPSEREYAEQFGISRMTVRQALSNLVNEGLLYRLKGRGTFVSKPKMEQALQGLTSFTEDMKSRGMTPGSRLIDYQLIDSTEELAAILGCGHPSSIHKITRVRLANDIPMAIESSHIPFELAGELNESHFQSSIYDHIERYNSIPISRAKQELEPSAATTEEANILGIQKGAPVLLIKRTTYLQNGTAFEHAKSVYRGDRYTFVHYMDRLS
# assay.info: ITC
measurement.kind: Kd
Include the unit right after the number.

YvoA operator dsDNA (18mer) (dsDNA) DNA 1: ATTGGTATAGATCACTAG DNA 2: CTAGTGATCTATACCAAT has a reported Kd of 2.9 nM
